Target: PDGFRB(DKIN) (PDGFR-β) (Homo sapiens)
Construct: PDGFRB(DKIN)
Assay: Phage-display competitive binding assay, PDGFRB(DKIN)
Settings: T7 phage displaying human PDGFR-β, DKIN construct; read-out: Binding Assay: PDGFRB(DKIN)
pKd: −log10 of the molar value.
Exercise: state measured pKd for each of the molecules provided.

Task: Give the value of pKd reported for the following: CSc1ccc(NC(=O)Nc2cc(C(C)(C)C)on2)cc1 [Compound A37]
Output: 6.00 to 7.00

Task: Dear colleague, please send me the reported pKd for Cc1ccccc1-c1noc(-c2ccc(NC(=O)Nc3cc(C(C)(C)C)on3)cc2)n1 [Compound P4] when you can.
Output: > 7.00

Task: Indicate the recorded pKd value for this molecule: CC(C)(C)c1cc(NC(=O)Nc2ccc(NC(=O)c3c[nH]c(=O)nc3-c3ccncc3)cc2)no1 [Compound N19]
Output: 5.00 to 6.00

Task: Please indicate pKd recorded for Cc1ccc(NC(=O)Nc2cc(C(C)(C)C)on2)cc1 [Compound A33]
Output: > 7.00

For each of the items listed, what is its pKd?
1. CC(C)(C)c1cc(NC(=O)Nc2ccc(NC(=O)c3cccc[n+]3[O-])cc2)no1 [Compound N81]
2. O=C(Nc1ccc(Cl)cc1)Nc1cc(C(F)(F)F)cc(Cl)n1 [Compound Z76]
3. CC(C)c1ccc(NC(=O)Nc2cc(C(C)(C)C)on2)cc1 [Compound A25]
4. Cn1cc(C(=O)Nc2ccc(NC(=O)Nc3cc(C(C)(C)C)on3)cc2)c(C(F)(F)F)n1 [Compound N20]
5. CC(C)(C)c1cc(NC(=O)Nc2ccc(NC(=O)c3cc(N4CCOCC4)nc(N4CCOCC4)n3)cc2)no1 [Compound N54]
6. CCN(CC)CCNC(=O)c1ccc(NC(=O)Nc2cc(C(C)(C)C)on2)cc1 [Compound N102]

Output:
["> 7.00", "< 5.00", "6.00 to 7.00", "6.00 to 7.00", "> 7.00", "< 5.00"]
